Hello, the source for this data is paper PMC3894222, in case you need it.

- system: Sm5HTR (Schistosoma mansoni, UniProt G4V5G4)
- Construct: full length, 463 residues, 52 kDa; pCI-neo; transiently transfected HEK 293 cells
- Sequence (G4V5G4 1-463): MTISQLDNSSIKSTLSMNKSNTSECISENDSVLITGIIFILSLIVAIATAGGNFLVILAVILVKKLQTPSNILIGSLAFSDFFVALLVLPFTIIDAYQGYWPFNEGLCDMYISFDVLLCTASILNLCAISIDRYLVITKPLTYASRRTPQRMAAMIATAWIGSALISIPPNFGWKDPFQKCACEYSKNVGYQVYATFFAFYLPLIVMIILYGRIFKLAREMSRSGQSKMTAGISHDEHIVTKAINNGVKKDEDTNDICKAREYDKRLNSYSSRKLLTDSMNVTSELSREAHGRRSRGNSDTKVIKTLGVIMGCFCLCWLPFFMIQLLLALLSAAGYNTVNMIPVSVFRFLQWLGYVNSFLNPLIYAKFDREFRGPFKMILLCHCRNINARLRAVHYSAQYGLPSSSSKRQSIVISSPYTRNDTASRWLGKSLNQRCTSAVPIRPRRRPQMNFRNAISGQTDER
- assay.remarks: cAMP fluorescent competitive immunoassay, transfected HEK […] cells
observable: EC50 (nM)
Give the number; nM is assumed, so skip it.

## Input Please indicate EC50 recorded for `COc1ccc2[nH]cc(CCN)c2c1`
## Output 72.2
